Values compiled from ChEMBL document CHEMBL3885861.

Below, each entry is listed alongside its reported PL.
species: Rattus norvegicus; assay: Open TG-GATES - Regimen: Daily Repeat; type: toxicity, organism-based, Sprague-Dawley; set-up: regimen Daily Repeat, gender Male, age 6 weeks; settings: in vivo, po, 300 mg/kg, […], tissue Plasma, route gavage, dose level Middle, time 7 day
Reply with just the number (in mg/dL).

Example cases with answers are listed next.
>>> numericvalue("COC(=O)C1=C(C)NC(C)=C(C(=O)OC)C1c1ccccc1[N+](=O)[O-]")
154.4
>>> numericvalue("CN/C(=N/CCSCc1nc[nH]c1C)NC#N")
156.2
>>> numericvalue("O=C(OC[C@H]1O[C@@H](OC(=O)c2cc(O)c(O)c(OC(=O)c3cc(O)c(O)c(O)c3)c2)[C@H](OC(=O)c2cc(O)c(O)c(OC(=O)c3cc(O)c(O)c(O)c3)c2)[C@@H](OC(=O)c2cc(O)c(O)c(OC(=O)c3cc(O)c(O)c(O)c3)c2)[C@@H]1OC(=O)c1cc(O)c(O)c(OC(=O)c2cc(O)c(O)c(O)c2)c1)c1cc(O)c(O)c(OC(=O)c2cc(O)c(O)c(O)c2)c1")
154.6
>>> numericvalue("Cc1nnc2n1-c1ccc(Cl)cc1C(c1ccccc1Cl)=NC2")
162.8

GET /value?item= `CCOc1ccc(NC(C)=O)cc1` &field=PL returns 174.4

Memo: `CNC(=C[N+](=O)[O-])NCCSCc1ccc(CN(C)C)o1` , reported PL: 138.2

---

species: Rattus norvegicus; experiment: Open TG-GATES - Regimen: Daily Repeat; type: toxicity, organism-based, Sprague-Dawley; parameters: regimen Daily Repeat, gender Male, age 6 weeks; conditions: in vivo, po, 300 mg/kg, […], tissue Blood, route gavage, dose level Middle, time 14 day
The entries below are paired with their reported MCH.
Please state the figure in pg; there is no need to write the unit.

>>> numericvalue("COC(=O)C1=C(C)NC(C)=C(C(=O)OC)C1c1ccccc1[N+](=O)[O-]")
20.6

GET /value?item= `CCOc1ccc(NC(C)=O)cc1` &field=MCH returns 19.9

Measured MCH of `O=C(OC[C@H]1O[C@@H](OC(=O)c2cc(O)c(O)c(OC(=O)c3cc(O)c(O)c(O)c3)c2)[C@H](OC(=O)c2cc(O)c(O)c(OC(=O)c3cc(O)c(O)c(O)c3)c2)[C@@H](OC(=O)c2cc(O)c(O)c(OC(=O)c3cc(O)c(O)c(O)c3)c2)[C@@H]1OC(=O)c1cc(O)c(O)c(OC(=O)c2cc(O)c(O)c(O)c2)c1)c1cc(O)c(O)c(OC(=O)c2cc(O)c(O)c(O)c2)c1` : 20.7

Short answer for `CNC(=C[N+](=O)[O-])NCCSCc1ccc(CN(C)C)o1` : MCH was 21.3

So, `Cc1nnc2n1-c1ccc(Cl)cc1C(c1ccccc1Cl)=NC2` ? Its MCH was 19.9

`CN/C(=N/CCSCc1nc[nH]c1C)NC#N` yielded MCH of 20

---

species on record: Rattus norvegicus; assay: Open TG-GATES - Regimen: Daily Repeat; type: toxicity, organism-based, Sprague-Dawley; parameters: regimen Daily Repeat, gender Male, age 6 weeks; details: in vivo, po, 300 mg/kg, 72 h, tissue Plasma, route gavage, dose level Middle, time 3 day
readoutType: ALP (IU/L)
The reply should be a number in IU/L, with the unit left off.

>>> numericvalue("Cc1nnc2n1-c1ccc(Cl)cc1C(c1ccccc1Cl)=NC2 [TRIAZOLAM]")
1522.4
>>> numericvalue("O=C(OC[C@H]1O[C@@H](OC(=O)c2cc(O)c(O)c(OC(=O)c3cc(O)c(O)c(O)c3)c2)[C@H](OC(=O)c2cc(O)c(O)c(OC(=O)c3cc(O)c(O)c(O)c3)c2)[C@@H](OC(=O)c2cc(O)c(O)c(OC(=O)c3cc(O)c(O)c(O)c3)c2)[C@@H]1OC(=O)c1cc(O)c(O)c(OC(=O)c2cc(O)c(O)c(O)c2)c1)c1cc(O)c(O)c(OC(=O)c2cc(O)c(O)c(O)c2)c1 [TANNIC ACID]")
808.4

CNC(=C[N+](=O)[O-])NCCSCc1ccc(CN(C)C)o1 [RANITIDINE] yielded ALP of 966.2

The compound identified as COC(=O)C1=C(C)NC(C)=C(C(=O)OC)C1c1ccccc1[N+](=O)[O-] [NIFEDIPINE] registered its ALP at 1580.8

Just so you know, measured ALP for CCOc1ccc(NC(C)=O)cc1 [PHENACETIN] came out at 1609.6

Short answer for CN/C(=N/CCSCc1nc[nH]c1C)NC#N [CIMETIDINE] : ALP was 1094.2

---

Quick list: MCHC per entry.
species: Rattus norvegicus; test: Open TG-GATES - Regimen: Single; format: toxicity, organism-based, Sprague-Dawley; parameters: regimen Single, gender Male, age 6 weeks; conditions: in vivo, po, 0 mg/kg, 6 h, tissue Blood, route gavage, dose level Control
The figure you give is taken to be in %; do not add the unit.

Answered cases to consult:
>>> numericvalue("CS(=O)(=O)O.Cc1ccc(NC(=O)c2ccc(CN3CCN(C)CC3)cc2)cc1Nc1nccc(-c2cccnc2)n1 [IMATINIB MESYLATE]")
33.1
>>> numericvalue("CN1C(=O)CCS(=O)(=O)C1c1ccc(Cl)cc1 (stereo unspecified) [CHLORMEZANONE]")
33.8
>>> numericvalue("Brc1ccccc1 [BROMOBENZENE]")
33.3
>>> numericvalue("CN/C(=N/CCSCc1nc[nH]c1C)NC#N [CIMETIDINE]")
34.7
>>> numericvalue("CC(C)NNC(=O)c1ccncc1 [IPRONIAZID]")
34.3

Consider the record given below.
Entry CN(C)CCC(c1ccc(Cl)cc1)c1ccccn1 (stereo unspecified) [CHLORPHENIRAMINE] — recorded MCHC = 31.8

---

species on record: Rattus norvegicus; test: Open TG-GATES - Regimen: Single; assay type: toxicity, organism-based, Sprague-Dawley; parameters: regimen Single, gender Male, age 6 weeks; details: in vivo, po, 0 mg/kg, 3 h, tissue Plasma, route gavage, dose level Control
readoutType: Ca (mg/dL)
Reply numerically in mg/dL, unit not repeated.

Please review the following examples before continuing.
>>> numericvalue("CCOc1ccc(NC(C)=O)cc1 [PHENACETIN]")
11.1
>>> numericvalue("CC(C)NNC(=O)c1ccncc1 [IPRONIAZID]")
10.8
>>> numericvalue("CNC(=C[N+](=O)[O-])NCCSCc1ccc(CN(C)C)o1 [RANITIDINE]")
10.8
>>> numericvalue("CCCc1cc(=O)[nH]c(=S)[nH]1 [PROPYLTHIOURACIL]")
11
>>> numericvalue("CN1C(=O)CCS(=O)(=O)C1c1ccc(Cl)cc1 (stereo unspecified) [CHLORMEZANONE]")
11.5

For Brc1ccccc1 [BROMOBENZENE] the compound record lists Ca as 11.2

---

species: Rattus norvegicus; test: Open TG-GATES - Regimen: Single; format: toxicity, organism-based, Sprague-Dawley; set-up: regimen Single, gender Male, age 6 weeks; details: in vivo, po, 300 mg/kg, 6 h, tissue Kidney, route gavage, dose level Middle
Each entry below carries its reported KIDNEY_L.
Please respond with the number in g and leave the unit unwritten.

Example entries begin here.
>>> numericvalue("CNC(=C[N+](=O)[O-])NCCSCc1ccc(CN(C)C)o1")
1
>>> numericvalue("COC(=O)C1=C(C)NC(C)=C(C(=O)OC)C1c1ccccc1[N+](=O)[O-]")
0.9

Please fill in: KIDNEY_L reported for `Cc1nnc2n1-c1ccc(Cl)cc1C(c1ccccc1Cl)=NC2` = 0.9

KIDNEY_L for `O=C(OC[C@H]1O[C@@H](OC(=O)c2cc(O)c(O)c(OC(=O)c3cc(O)c(O)c(O)c3)c2)[C@H](OC(=O)c2cc(O)c(O)c(OC(=O)c3cc(O)c(O)c(O)c3)c2)[C@@H](OC(=O)c2cc(O)c(O)c(OC(=O)c3cc(O)c(O)c(O)c3)c2)[C@@H]1OC(=O)c1cc(O)c(O)c(OC(=O)c2cc(O)c(O)c(O)c2)c1)c1cc(O)c(O)c(OC(=O)c2cc(O)c(O)c(O)c2)c1` is 0.9

So for `CN/C(=N/CCSCc1nc[nH]c1C)NC#N` , the logged KIDNEY_L turned out to be 1

---

organism: Rattus norvegicus; experiment: Open TG-GATES - Regimen: Single; type: toxicity, organism-based, Sprague-Dawley; design: regimen Single, gender Male, age 6 weeks; conditions: in vivo, po, 0 mg/kg, 6 h, tissue Plasma, route gavage, dose level Control
PL overview
Provide the reading as a plain figure in mg/dL.

Would you please look over these solved cases?
>>> numericvalue("COC(=O)C1=C(C)NC(C)=C(C(=O)OC)C1c1ccccc1[N+](=O)[O-]")
139.8
>>> numericvalue("CNC(=C[N+](=O)[O-])NCCSCc1ccc(CN(C)C)o1")
146
>>> numericvalue("CS(=O)(=O)O.Cc1ccc(NC(=O)c2ccc(CN3CCN(C)CC3)cc2)cc1Nc1nccc(-c2cccnc2)n1 [IMATINIB MESYLATE]")
152.4

For record CN1C(=O)CCS(=O)(=O)C1c1ccc(Cl)cc1 (stereo not drawn) the listed PL is 145.6

In plain terms, NC1=NC(=O)C(c2ccccc2)O1 (stereo not drawn) has a documented PL of 138.6

Recorded result, `CN/C(=N/CCSCc1nc[nH]c1C)NC#N` , PL: 151.2

Reported PL for `CC(C)NNC(=O)c1ccncc1` was 140.6

// sample `Cc1nnc2n1-c1ccc(Cl)cc1C(c1ccccc1Cl)=NC2` , its PL was 138
